Recorded Enzyme degradation CDK9 (% remaining) @ 1 μM by entry
- target: CDK9 (Homo sapiens)
- Construct: endogenous in cells; host or cells: MDA-MB-231
- Sequence (P50750 whole entry): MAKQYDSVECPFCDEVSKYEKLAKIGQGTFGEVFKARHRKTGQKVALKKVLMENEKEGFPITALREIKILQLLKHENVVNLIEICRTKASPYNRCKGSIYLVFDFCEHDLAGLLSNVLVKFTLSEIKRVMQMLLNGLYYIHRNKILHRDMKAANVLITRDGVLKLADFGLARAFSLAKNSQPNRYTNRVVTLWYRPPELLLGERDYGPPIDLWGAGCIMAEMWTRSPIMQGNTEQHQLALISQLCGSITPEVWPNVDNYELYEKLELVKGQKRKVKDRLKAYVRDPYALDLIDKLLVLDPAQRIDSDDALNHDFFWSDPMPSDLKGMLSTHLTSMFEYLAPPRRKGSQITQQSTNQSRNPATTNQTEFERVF
- test.details: CDK protein degradation activity (Western blotting), CDK9
- Type: cell-based
- measurement.context: MDA-MB-231 cells, 1 μM, 16 hours, Western blot
- Method: In order to evaluate the CDK protein degradation activity of the compounds according to the present invention, the following experiment was conducted. MDA-MB-231 cells were seeded at 5×10^5 cells per well in a 6-well plate. The next day, the compounds were treated in each well to achieve final concentrations of 100 nM, 1 μM, and 10 μM. […] Cell lysates were quantified and separated by size using sodium dodecyl sulfate-polyacrylamide gel electrophoresis (SDS-PAGE). […]

# example entries with known answers
[[record]]
molecule = "O=C1CC[C@H](N2C(=O)c3ccc(N4CCC(C(=O)N5CCC6(CC5)CC(N5CCN(c7ccc(Nc8ncnc9c8ncn9C8CC(NC(=O)Cc9ccccc9)C8)cc7)CC5)C6)CC4)cc3C2=O)C(=O)N1 (stereo partly drawn) [Compound 353]"
target = "CDK9 (Homo sapiens)"
result = "10/10/10%"

[[record]]
molecule = "O=C1CC[C@H](N2C(=O)c3ccc(N4CC(C(=O)N5CCC6(CC5)CC(N5CCN(c7ccc(Nc8ncnc9c8ncn9C8CC(NC(=O)c9c(Cl)cccc9Cl)C8)cc7)CC5)C6)C4)cc3C2=O)C(=O)N1 (stereo partly drawn) [Compound 383]"
target = "CDK9 (Homo sapiens)"
result = "0/0/0%"


Consider now this further molecule.
Query Enzyme degradation CDK9 (% remaining) @ 1 μM for CC(=O)N[C@H]1C[C@@H](n2cnc3c(NCC4CCN(CC5CCN(C(=O)COc6ccc7c(c6)C(=O)N([C@H]6CCC(=O)NC6=O)C7=O)CC5)CC4)ncnc32)C1 [Compound 154]
70%
